# Measured on: CB2 receptor (Homo sapiens, UniProt P34972)
# Sequence (P34972 whole entry): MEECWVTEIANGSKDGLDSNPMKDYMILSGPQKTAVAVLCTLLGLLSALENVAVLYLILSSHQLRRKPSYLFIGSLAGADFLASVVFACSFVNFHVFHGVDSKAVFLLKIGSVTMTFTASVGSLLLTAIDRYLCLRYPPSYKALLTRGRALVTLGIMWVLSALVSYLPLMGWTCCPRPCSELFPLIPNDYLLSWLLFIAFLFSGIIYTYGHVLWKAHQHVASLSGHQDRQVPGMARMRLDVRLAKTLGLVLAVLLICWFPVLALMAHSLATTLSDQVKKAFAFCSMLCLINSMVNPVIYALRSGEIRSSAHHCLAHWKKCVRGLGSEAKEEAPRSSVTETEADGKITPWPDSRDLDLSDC
# Experiment: CB2 assay: displacement of [3H]CP-55,940 from cloned human CB2 receptor preparation (transfected HEK 293 cells)
# Format: binding
# Parameters: expressed in transfected cells
# Experimental context: Table 2; ratio of Ki values
Observation type: Ratio CB17CB2
Lab note: jot the number down without any unit.

Solved cases below.
| Compound | Measured on | Ratio CB17CB2 |
| --- | --- | --- |
| CCCCCn1cc(C(=O)c2ccc(C)c3ccccc23)c2ccccc21 [JWH-122] | CB2 receptor (Homo sapiens, UniProt P34972) | 0.6 |
| CCCCCn1cc(C(=O)c2ccc(CCCC)c3ccccc23)c2ccccc21 [JWH-240, 1-Pentyl-3-(4-butyl-1-naphthoyl)indole] | CB2 receptor (Homo sapiens, UniProt P34972) | 1.9 |
| CCCn1cc(C(=O)c2cccc3ccc(CC)cc23)c2ccccc21 [JWH-235, 1-Propyl-3-(7-ethyl-1-naphthoyl)indole] | CB2 receptor (Homo sapiens, UniProt P34972) | 2.7 |

Read the next record carefully.
Given CCCn1c(C)c(C(=O)c2cccc3ccc(C)cc23)c2ccccc21 [JWH-046] , state its recorded Ratio CB17CB2.
21
